compounds and their reported absorption coefficient (ε) (* 10^4)
assay: Optical measurement of the dyes by UV-visible spectrophotometer; format: physicochemical; conditions: MeOH solution; at first absorption maximum

For orientation, consider the following solved cases.
CC1=[N+](C)c2ccccc2C1(C)C [I-h] | 18.5 * 10^4
CCCC[N+](CCCC)(CCCC)CCCC [V-a] | 6.41 * 10^4
CC1=[N+](Cc2ccc(C(=O)OCC(F)(F)C(F)F)cc2)c2ccccc2C1(C)C [I-g] | 12.99 * 10^4
Cc1sc2ccccc2[n+]1C | 10.7 * 10^4
CCCCN(CCCC)c1ccc([N+](=C2C=CC(=[N+](c3ccc(N(CCCC)CCCC)cc3)c3ccc(N(CCCC)CCCC)cc3)C=C2)c2ccc(N(CCCC)CCCC)cc2)cc1 [V-c] | 6.8 * 10^4

Q: For the compound shown here, CC1=[N+](C)c2ccccc2C1(C)C [Dye I-2] , give the reported absorption coefficient (ε) (* 10^4).
A: 15.4 * 10^4

Q: Consider next the compound CC1=[N+](Cc2ccc(C(=O)OCC(F)(F)C(C)F)cc2)c2ccccc2C1(C)C (stereo not drawn) in the same way.
A: 8.4 * 10^4

Q: Another compound to look at: CC1=[N+](Cc2ccc(C(=O)OCC(C)(C)C(C)C)cc2)c2ccccc2C1(C)C
A: 9.72 * 10^4

Q: Likewise for CC1=[N+](Cc2ccc(C(=O)OCC(F)(F)C(F)F)cc2)c2ccccc2C1(C)C [I-i] ?
A: 12.2 * 10^4

Q: Moving on to CCCCN(CCCC)c1ccc([N+](=C2C=CC(=[N+](c3ccc(N(CCCC)CCCC)cc3)c3ccc(N(CCCC)CCCC)cc3)C=C2)c2ccc(N(CCCC)CCCC)cc2)cc1 [I-d]
A: 6.58 * 10^4

Q: // same read-out, input: CCOC(=O)CCCC[N+]1=C(C)C(C)(C)c2ccccc21
A: 11.8 * 10^4

Q: Now consider CC1=[N+](C)c2ccccc2C1(C)C [Dye V-2] .
A: 19.1 * 10^4

Q: Also need CC1=[N+](Cc2ccc(C(=O)OCC(F)(F)C(F)F)cc2)c2ccccc2C1(C)C [I-f] , thanks.
A: 8.08 * 10^4

Q: Please give the result for CCCC[N+]1=C(C)C(C)(C)c2ccccc21 too.
A: 12.1 * 10^4

Q: // same read-out, input: CCN(CC)CC
A: 8.45 * 10^4

Q: Now the compound c1ccncc1
A: 4.98 * 10^4

Q: Now the same for COS(=O)(=O)CCCC[N+]1=C(C)C(C)(C)c2ccccc21
A: 12.5 * 10^4

Q: Same question for CC1=[N+](C)c2ccccc2C1(C)C [I-n] please.
A: 11.5 * 10^4

Q: Next entry: CC1=[N+](C)c2ccccc2C1(C)C [V-e]
A: 10.35 * 10^4

Q: What do we get for CCCC[N+](CCCC)(CCCC)CCCC [I-c] ?
A: 6.22 * 10^4

Q: Next: CC1=[N+](Cc2ccc(C(=O)OCC(F)(F)C(F)F)cc2)c2ccccc2C1(C)C [I-e]
A: 7.58 * 10^4
